From: paper PMC6355318

Let's look at some compounds and their measured log10 of IC50.
- System name: PfPKG (Plasmodium falciparum, UniProt Q8I719)
- Sequence (Q8I719 whole entry): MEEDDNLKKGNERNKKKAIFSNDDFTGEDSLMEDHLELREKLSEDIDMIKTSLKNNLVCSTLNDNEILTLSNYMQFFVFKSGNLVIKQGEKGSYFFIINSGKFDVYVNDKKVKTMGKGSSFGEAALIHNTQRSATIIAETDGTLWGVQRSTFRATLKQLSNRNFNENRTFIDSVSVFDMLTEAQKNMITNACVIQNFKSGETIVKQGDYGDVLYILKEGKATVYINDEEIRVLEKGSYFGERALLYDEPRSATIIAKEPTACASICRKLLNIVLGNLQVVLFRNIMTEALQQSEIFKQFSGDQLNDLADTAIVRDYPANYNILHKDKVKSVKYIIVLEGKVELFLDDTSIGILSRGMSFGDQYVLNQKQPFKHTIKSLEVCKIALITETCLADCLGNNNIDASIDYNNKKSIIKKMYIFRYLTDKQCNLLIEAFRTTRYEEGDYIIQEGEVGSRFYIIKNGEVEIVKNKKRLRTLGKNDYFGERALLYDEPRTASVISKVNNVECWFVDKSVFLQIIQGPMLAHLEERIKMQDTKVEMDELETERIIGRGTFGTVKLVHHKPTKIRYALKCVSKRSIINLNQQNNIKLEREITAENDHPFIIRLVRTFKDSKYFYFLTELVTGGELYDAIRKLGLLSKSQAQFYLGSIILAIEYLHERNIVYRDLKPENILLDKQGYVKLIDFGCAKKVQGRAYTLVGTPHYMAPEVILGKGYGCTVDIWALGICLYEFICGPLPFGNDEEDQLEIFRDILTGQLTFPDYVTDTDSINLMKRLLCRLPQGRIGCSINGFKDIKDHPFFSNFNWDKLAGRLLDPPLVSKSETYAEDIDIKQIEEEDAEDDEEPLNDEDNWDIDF
- Method: biochemical
- Assay type: biochemical
- Condition label: recombinant kinase; read-out: PfPKG pIC50 (converted)
Attribute measured: log10 of IC50 (log10 of the value in nM)

CN(C)Cc1cc2nc(-c3ccc(F)cc3)c(-c3ccnc(N)n3)n2cn1 = 1.74
CN(C)Cc1ccn2c(-c3ccncn3)c(-c3ccc(F)cc3)nc2c1 [Compound 7, reference compound] = 1.08
CN(C)Cc1ccn2c(-c3ccnc(N)n3)c(-c3ccc(F)cc3)nc2n1 = 1.91
CN(C)Cc1ccn2c(-c3ccnc(N)c3)c(-c3ccc(F)cc3)nc2c1 = 1.72
CN1CCC(n2cc(Nc3nccc(-c4c(-c5ccc(F)cc5)nc5ccccn45)n3)cn2)CC1 = 2.00
CN(C)CCNc1ccc2nc(-c3ccc(F)cc3)c(-c3ccnc(N)n3)n2n1 = 2.61
